- method-description: Solubility of compound in PBS buffer pH 7.4 with 1% DMSO measured after 1 and 24 hrs
- Type: physicochemical
- condition: PBS buffer with 1% DMSO
property: solubility at 24 h

Worked cases, answers included:
compound: CCCC/C(=C\c1cc(OCc2ccc3nc(C(F)(F)F)cc(OC)c3c2)ccc1OCc1ccc(C(F)(F)F)cc1)C(=O)O
solubility at 24 h: 50 to 75 µM
//
compound: CCC/C(=C\c1cc(OCc2ccc3nc(C(F)(F)F)cc(OC)c3c2)ccc1OCCN1CCN(C)CC1)C(=O)O
solubility at 24 h: 200 to 250 µM

// below: solubility at 24 h requested for another compound
For the compound shown here, "CCC/C(=C\c1cc(OCc2ccc3nc(C(F)(F)F)cc(OC)c3c2)ccc1OCC1CCN(C)CC1)C(=O)O" , give the reported solubility at 24 h. 125 to 150 µM

* * *

- method-description: AUC (0 to 3 hrs) in Swiss CD1 mouse at 1 mg/kg, ip measured upto 3 hrs by LC-MS analysis
- Format: ADME, organism-based
- Parameters: dose 1 mg/kg, time < 3 hr, route intraperitoneal
- condition: in vivo
property: AUC(0-t) at 3 h (ng·h/mL)

compound: CCC/C(=C\c1cc(OCc2ccc3nc(C(F)(F)F)cc(OC)c3c2)ccc1OCC1CCN(C)CC1)C(=O)O
property: AUC(0-t) at 3 h
unit-text: ng·h/mL
value-reported: 101

compound: CCC/C(=C\c1cc(OCc2ccc3nc(C(F)(F)F)cc(OC)c3c2)ccc1OCCN1CCN(C)CC1)C(=O)O
property: AUC(0-t) at 3 h
unit-text: ng·h/mL
value-reported: 112

* * *

- system-under-test: Peroxisome proliferator-activated receptor gamma (Homo sapiens, UniProt P37231)
- Sequence (P37231 whole entry): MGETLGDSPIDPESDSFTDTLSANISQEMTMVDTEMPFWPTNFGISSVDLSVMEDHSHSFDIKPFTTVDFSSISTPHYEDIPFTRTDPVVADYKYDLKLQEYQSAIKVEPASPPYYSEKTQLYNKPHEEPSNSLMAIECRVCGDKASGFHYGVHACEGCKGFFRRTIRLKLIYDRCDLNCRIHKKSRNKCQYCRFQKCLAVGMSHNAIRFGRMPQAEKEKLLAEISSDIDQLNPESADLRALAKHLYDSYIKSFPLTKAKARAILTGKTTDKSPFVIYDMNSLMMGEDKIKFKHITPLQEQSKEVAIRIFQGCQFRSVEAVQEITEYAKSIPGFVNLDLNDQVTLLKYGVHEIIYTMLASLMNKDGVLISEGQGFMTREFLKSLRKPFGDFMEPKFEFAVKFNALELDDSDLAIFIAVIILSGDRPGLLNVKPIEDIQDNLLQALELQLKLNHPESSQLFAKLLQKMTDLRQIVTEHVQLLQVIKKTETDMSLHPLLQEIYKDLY
- method-description: Antagonist actvity in pFA-GAL4-DBD fused PPARgamma LBD (unknown origin) transfected in HEK293T cells assessed as inhibition of rosiglitazone-induced PPARgamma transactivation incubated for 24 hrs by luciferase reporter gene assay
- Format: cell-based
- condition: read-out: IC50
property: IC50 (µM)

compound: CCC/C(=C\c1cc(OCc2ccc3c(ccc[n+]3[O-])c2)ccc1OCc1ccc(F)cc1)C(=O)O
value-reported: 6.1

compound: CCCn1c(C(=O)O)cc2c(OC)ccc(OCc3ccc4nc(C(F)(F)F)cc(OC)c4c3)c21
value-reported: 3.9

compound: CCC/C(=C\c1cc(OCc2ccc3ncccc3c2)ccc1OCc1ccc(F)cc1)C(=O)O
value-reported: 5

I = CCCC/C(=C\c1cc(OCc2ccc3nc(C(F)(F)F)cc(OC)c3c2)ccc1OCc1ccc(F)cc1)C(=O)O
II = COc1cc(C(F)(F)F)nc2ccc(COc3ccc(OCc4ccc(F)cc4)c(/C=C(\C)C(=O)O)c3)cc12
III = CCC/C(=C\c1cc(OCc2ccc3cccnc3c2)ccc1OCc1ccc(F)cc1)C(=O)O
Ranking field: IC50; order: falling. Lab note: record answer as labels in requested order. III, II, I
(III: 23.9 µM, II: 9.4 µM, I: 2.3 µM)

I = CCC/C(=C\c1cc(OCc2ccc3nc(C(F)(F)F)cc(OC)c3c2)ccc1OCc1ccc(F)cc1)C(=O)O
II = CCCC/C(=C\c1cc(OCc2ccc3nc(C(F)(F)F)cc(OC)c3c2)ccc1OCc1ccc(OC(F)(F)F)cc1)C(=O)O
III = CCC/C(=C\c1cc(OCc2ccc3nc(C(F)(F)F)cc(OC)c3c2)ccc1NC(=O)c1ccc(F)cc1)C(=O)O
IV = CC/C(=C\c1cc(OCc2ccc3nc(C(F)(F)F)cc(OC)c3c2)ccc1OCc1ccc(F)cc1)C(=O)O
Ranking field: IC50; order: falling. Lab note: record answer as labels in requested order. III, IV, I, II

P = CCCC/C(=C\c1cc(OCc2ccc3nc(C(F)(F)F)cc(OC)c3c2)ccc1OCc1ccc(OC(F)F)cc1)C(=O)O
Q = CCC/C(=C\c1cc(OCc2ccc3nc(C(F)(F)F)cc(OC)c3c2)ccc1OCCN1CCNCC1)C(=O)O
// task: argmin of IC50 over [ P , Q ] Give the label under which the chosen entry appears. P
(P: 2.6 µM, Q: 9.6 µM)
